Source listed as patent US20160235727A1.

- measurement.target: human β3-AR (Homo sapiens, UniProt P13945)
- Construct: expressed in transfected cells; host or cells: CHO (Chinese hamster ovary) cells, stably transfected
- Sequence (P13945 whole entry): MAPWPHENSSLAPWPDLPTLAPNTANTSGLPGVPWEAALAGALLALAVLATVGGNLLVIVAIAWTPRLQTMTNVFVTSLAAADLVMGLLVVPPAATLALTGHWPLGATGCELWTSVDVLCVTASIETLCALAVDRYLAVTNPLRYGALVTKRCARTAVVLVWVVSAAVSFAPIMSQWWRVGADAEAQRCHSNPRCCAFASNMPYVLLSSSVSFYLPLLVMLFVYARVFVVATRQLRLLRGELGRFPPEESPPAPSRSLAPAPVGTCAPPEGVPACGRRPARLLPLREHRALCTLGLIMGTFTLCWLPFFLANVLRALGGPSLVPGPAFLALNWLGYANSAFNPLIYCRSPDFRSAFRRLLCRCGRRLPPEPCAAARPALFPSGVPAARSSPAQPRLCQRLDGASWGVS
- test: cAMP functional agonist assay (LANCE TR-FRET) in CHO cells expressing cloned human β3-AR
- Format: cell-based
- condition.description: EC50 of comparative example divided by EC50 of corresponding 2-chloropyridine compound
property: Fold drop in potency vs. 2-chloropyridine analog (fold)

CN(Cc1n[nH]c2c1CCC2)C(=O)c1ccc(C[C@@H]2CC[C@H]([C@H](O)c3ccccc3)N2)cc1 [Example 13-B] :: 1.5

A. C[C@H](c1nn(C)c(=O)o1)N(C)C(=O)c1ccc(C[C@@H]2CC[C@H]([C@H](O)c3ccc(Cl)cc3)N2)cc1 [Example 18-G]
B. CC(C)[C@H](c1nn(C)c(=O)o1)N(C)C(=O)c1ccc(C[C@@H]2CC[C@H]([C@H](O)c3ccccc3)N2)cc1 [Example 19-B]
Ask | Looking at A and B , which one comes out lower in Fold drop in potency vs. 2-chloropyridine analog terms? Identify your selection by its label.
Reply | A

A. CC(O)c1cncc(CN(C)C(=O)c2ccc(C[C@@H]3CC[C@H]([C@H](O)c4ccccc4)N3)cc2)c1 (stereo partly drawn) [Example 31-B]
B. CN(Cc1cccnc1F)C(=O)c1ccc(C[C@@H]2CC[C@H]([C@H](O)c3ccc(F)cc3)N2)cc1 [Example 26-F]
C. Cc1[nH]nc(CN(C)C(=O)c2ccc(C[C@@H]3CC[C@H]([C@H](O)c4ccccc4)N3)cc2)c1O [Example 15-B]
Ask | Kindly order the items shown according to Fold drop in potency vs. 2-chloropyridine analog, from the highest value down. As an answer, provide the labels arranged in the order called for.
Reply | C, B, A

A. CC(C)c1cc(CN(C)C(=O)c2ccc(C[C@@H]3CC[C@H]([C@H](O)c4ccccc4)N3)cc2)n[nH]1 [Example 7-B]
B. COCc1cc(CN(C)C(=O)c2ccc(C[C@@H]3CC[C@H]([C@H](O)c4ccccc4)N3)cc2)n[nH]1 [Example 9-B]
Ask | Looking at A and B , which one comes out lower in Fold drop in potency vs. 2-chloropyridine analog terms? Identify your selection by its label.
Reply | A

====

- measurement.target: human β3-AR (Homo sapiens, UniProt P13945)
- Construct: expressed in transfected cells; host or cells: CHO (Chinese hamster ovary) cells, stably transfected
- test: cAMP functional agonist assay (LANCE TR-FRET) in CHO cells expressing cloned human β3-AR
- Assay type: cell-based
- condition.description: percent maximum activation relative to isoproterenol
property: Human β3-AR Agonist Activity (%)

Cc1cc(C(Cc2ccccc2)N(C)C(=O)c2ccc(C[C@@H]3CC[C@H]([C@H](O)c4cccnc4)N3)cc2)[nH]n1 (stereo partly shown) :: 92
COc1ccc(CN(C)C(=O)c2ccc(C[C@@H]3CC[C@H]([C@H](O)c4ccccc4)N3)cc2)cn1 :: 99
CN(Cc1cncc(C(=O)O)c1)C(=O)c1ccc(C[C@@H]2CC[C@H]([C@H](O)c3ccc(Cl)cc3)N2)cc1 :: 102
CN(Cc1ccc(Cl)nc1)C(=O)c1ccc(C[C@@H]2CC[C@H]([C@H](O)c3ccccc3)N2)cc1 :: 100
CN(Cc1cnccn1)C(=O)c1ccc(C[C@@H]2CC[C@H]([C@H](O)c3cncc(F)c3)N2)cc1 :: 87
O=C(c1ccc(C[C@@H]2CC[C@H]([C@H](O)c3cccnc3)N2)cc1)N(CCO)Cc1cccnc1F :: 78
CN(Cc1cnccn1)C(=O)c1ccc(C[C@@H]2CC[C@H]([C@H](O)c3cccc(Cl)c3)N2)cc1 :: 86
